# targetOrTestSystem: KRAS G12D (Homo sapiens, UniProt P01116+P62937, G12D)
# Sequence (P01116 1-169 isoform P01116-2 G12D limits assumed): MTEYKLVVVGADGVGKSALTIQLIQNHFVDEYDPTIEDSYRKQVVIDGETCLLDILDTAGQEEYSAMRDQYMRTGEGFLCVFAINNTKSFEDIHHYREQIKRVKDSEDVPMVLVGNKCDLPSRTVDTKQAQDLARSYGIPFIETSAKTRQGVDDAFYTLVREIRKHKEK
# Sequence (P62937 whole entry): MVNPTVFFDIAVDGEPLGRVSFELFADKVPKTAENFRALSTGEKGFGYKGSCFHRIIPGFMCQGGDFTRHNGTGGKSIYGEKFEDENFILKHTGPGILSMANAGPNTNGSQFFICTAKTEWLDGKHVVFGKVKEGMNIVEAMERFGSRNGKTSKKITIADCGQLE
# assayOverview: Disruption of BRAF RBD interaction with Ras (FRET / MOA assay, with Cyclophilin A)
# Type: biochemical
# appliedConditions: read-out: KRAS G12D FRET data, IC50
experimentalEndpoint: IC50

The cases that follow already have their IC50 on record.
INSERT INTO measurements (molecule, targetortestsystem, assayresult) VALUES
  ('CCn1c(-c2cccnc2[C@H](C)OC)c2c3cc(ccc31)-c1cc(O)cc(c1)C[C@H](NC(=O)[C@H](C(C)C)N(C)C(=O)N1CC(N(C)C)C1)C(=O)N1CCC[C@H](N1)C(=O)OCC(C)(C)C2', 'KRAS G12D (Homo sapiens, UniProt P01116+P62937, G12D)', '100 to 1000 nM'),
  ('CCn1c(-c2cccnc2[C@H](C)OC)c2c3cc(ccc31)-c1csc(n1)C[C@H](NC(=O)[C@H](C(C)C)N(C)C(=O)N1CCN(C(=O)C3(N(C)C)CC3)CC1)C(=O)N1CCC[C@H](N1)C(=O)OCC(C)(C)C2 (atropisomer, axis not shown)', 'KRAS G12D (Homo sapiens, UniProt P01116+P62937, G12D)', '100 to 1000 nM'),
  ('CCn1c(-c2cccnc2[C@H](C)OC)c2c3cc(ccc31)-c1csc(n1)C[C@H](NC(=O)[C@H](C(C)C)N(C)C(=O)N1CCCOCC1)C(=O)N1CCC[C@H](N1)C(=O)OCC(C)(C)C2 (atropisomer, axis not shown)', 'KRAS G12D (Homo sapiens, UniProt P01116+P62937, G12D)', '100 to 1000 nM');

Which IC50 reading was recorded for the molecule CCn1c(-c2cccnc2[C@H](C)OC)c2c3cc(ccc31)-c1csc(n1)C[C@H](NC(=O)[C@H](COC1CN(C(=O)C#CC(C)(C)N(C)C)C1)OC)C(=O)N1CCC[C@H](N1)C(=O)OCC(C)(C)C2 (atropisomer, axis not shown) ?
> 10000 nM
